test-system: T1, human Y5 receptor (human, UniProt Q15761 1-445)
T1 construct: also called CG-19; hY5
T1 sequence: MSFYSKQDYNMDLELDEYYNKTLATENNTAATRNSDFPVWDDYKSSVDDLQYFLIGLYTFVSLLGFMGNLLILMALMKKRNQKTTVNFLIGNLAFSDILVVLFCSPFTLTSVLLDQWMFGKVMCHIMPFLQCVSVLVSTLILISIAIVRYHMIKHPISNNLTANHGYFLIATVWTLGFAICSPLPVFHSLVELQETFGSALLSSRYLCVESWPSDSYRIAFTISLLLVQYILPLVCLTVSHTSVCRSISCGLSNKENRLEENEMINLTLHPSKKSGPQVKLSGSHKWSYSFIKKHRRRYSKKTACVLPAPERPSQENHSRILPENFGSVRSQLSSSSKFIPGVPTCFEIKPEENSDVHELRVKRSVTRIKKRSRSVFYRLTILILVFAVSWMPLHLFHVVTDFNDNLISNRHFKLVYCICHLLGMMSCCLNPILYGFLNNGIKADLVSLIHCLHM
test-summary: 125I-PYY3-36 displacement, LM(tk-) membranes
readout: Ki (nM)

APLEPMYPGDYATHEQRAQYETQLRRYINTLTRPRY (peptide, UniProt P06303 30-65, looked up, mature; also called PP, rat) [rat PP] | 130

a: LTRPRY (peptide, UniProt P01298 60-65, looked up, range 60-65; Range counted on the mature peptide) [human PP31-36]
b: APLEPEYPGDNATPEQMAQYAAELRRYINMLTRPRY (peptide, UniProt P01302 30-65, looked up, mature; also called PP, bovine) [bovine PP]
Q) Please compare: a and b . Report which one has the smaller Ki value. Refer to your chosen entry by its label in the reply.
A) b
(b: 5 nM, a: 41000 nM)
